Reference source: the supplement of paper PMC8671470

System: Mono-Mac-6
measurement description: cell viability (% survival relative to DMSO control, bortezomib = 0%); higher = less cytotoxic
run parameters: 10000 nM; 72 h
Could you please mark T for values of cell viability below 60% and F for values at or above it?

## Task Does the reported cell viability of the following compound sit strictly below 60%? O=C(NCCN1CCC(n2c(O)nc3ccccc32)CC1)c1cc2cc(F)ccc2[nH]1 [FIPI]
## Result F

## Task Input N#C/C(=C\c1ccc(O)cc1)C(=O)O [alpha-cyano-4-hydroxycinnamic acid] ; condition: cell viability strictly below 60%. Does it hold?
## Result F

## Task Item C=CC(=O)c1ccc(O)cc1 [4-Acryloylphenol] : cell viability beneath 60%, strictly?
## Result T

## Task Report whether reported cell viability is lower than 60% (strictly) for O=C1C(SCCO)=C(SCCO)C(=O)c2ccccc21
## Result T

## Task Problem: For the compound Cc1cc(C(=O)NNCc2ccccc2)no1 [Isocarboxazid] , is cell viability under 60%?
## Result F

## Task Hello, I'm reviewing records and need to know if cell viability of CN(CCCOc1ccc(Cc2ccccc2)cc1)CCC(=O)O is below 60%. Could you check?
## Result F

## Task Would you kindly verify if cell viability of O=c1cc(N2CCOCC2)oc2c(-c3ccccc3)cccc12 is strictly less than 60%?
## Result T

## Task I wonder whether CC(C)CC(=O)N[C@H](C(=O)N[C@H](C(=O)N[C@@H](CC(C)C)[C@@H](O)CC(=O)N[C@@H](C)C(=O)N[C@@H](CC(C)C)[C@@H](O)CC(=O)O)C(C)C)C(C)C [Pepstatin A] has cell viability below 60%. Can you tell?
## Result F

## Task Is 60% strictly greater than the compound's reported cell viability? compound: Cc1c2c(=O)n(-c3ccccc3Cl)[nH]c2cc(=O)n1Cc1ccccn1
## Result F

## Task Hi there! Is cell viability for O=C(Nc1ccccc1)c1cc([N+](=O)[O-])ccc1Cl [GW9662] below 60%, do you know?
## Result F

## Task Item CN(Cc1cnc2nc(N)nc(N)c2n1)c1ccc(C(=O)N[C@@H](CCC(=O)O)C(=O)O)cc1 [Methotrexate] : cell viability beneath 60%, strictly?
## Result T

## Task Just wondering, is cell viability of Cc1ccc(-c2cc(C(F)(F)F)nn2-c2ccc(S(N)(=O)=O)cc2)cc1 [Celecoxib] below 60%?
## Result F

## Task Say whether its cell viability is strictly beneath 60%. Entry: C[C@H]1c2cccc(O)c2C(=O)C2C(=O)[C@]3(O)C(=O)C(C(N)=O)C(=O)[C@@H](N(C)C)[C@@H]3[C@@H](O)[C@@H]21 (some centres not stated) [Doxycycline]
## Result F

## Task Just wondering, is cell viability of Cc1c(Cl)cccc1S(=O)(=O)Nc1nc(CC(=O)N2CCN(C)CC2)cs1 [BVT-2733] below 60%?
## Result F

## Task Field: below-cutoff. Rule: recorded cell viability strictly less than 60%. Subject: O=C(O)CC[N+](=O)[O-] [3-nitropropionic acid]
## Result F

## Task Determine if O=c1cc(-c2ccccc2)oc2c1ccc1ccccc12 [Alpha-Naphtoflavone] shows cell viability strictly lower than 60%.
## Result F

## Task Hello, I'm reviewing records and need to know if cell viability of Cn1cc(-c2ccncc2)c(-c2ccc(OCc3ccc4ccccc4n3)cc2)n1 is below 60%. Could you check?
## Result T

* * *

Test system: K-562
measurement description: cell viability (% survival relative to DMSO control, bortezomib = 0%); higher = less cytotoxic
run parameters: 1000 nM; 72 h
property name: cell viability (%)
Give the number; % is assumed, so skip it.

## Task Using known records, supply cell viability for CCc1c(C(=O)C(N)=O)c2c(OCC(=O)O)cccc2n1Cc1ccccc1
## Result 92.4

## Task For the compound CCCCCOC(=O)Nc1nc(=O)n([C@@H]2O[C@H](C)[C@@H](O)[C@H]2O)cc1F , give its measured cell viability value.
## Result 99.9

## Task Please give measured cell viability of the following entry: O=C(NCCN1CCC(n2c(O)nc3ccccc32)CC1)c1cc2cc(F)ccc2[nH]1
## Result 101

## Task Indicate the recorded cell viability value for this compound: Cc1cccc(Nc2cc(Cl)nc(SCC(=O)O)n2)c1C
## Result 94.5

## Task Please supply the value of reported cell viability for the item O=c1cc(-c2ccccc2)oc2c1ccc1ccccc12
## Result 90.2

## Task Item CN1CCN(CCCN2c3ccccc3Sc3ccc(C(F)(F)F)cc32)CC1 : provide cell viability
## Result 92

## Task Query cell viability for Cc1cc2c(C(C)C)c(O)c(O)c(C=O)c2c(O)c1-c1c(C)cc2c(C(C)C)c(O)c(O)c(C=O)c2c1O
## Result 110

## Task Entry COC(=O)c1cc2c(C(F)(F)F)cc(-c3ccccc3)cc2n1O needs its cell viability filled in; supply it.
## Result 87.4

* * *

Exercise: for every item that follows, state its recorded cell viability.
Tested on: HEL
measurement description: cell viability (% survival relative to DMSO control, bortezomib = 0%); higher = less cytotoxic
run parameters: 1000 nM; 72 h
Please reply with the bare figure in % and do not write the unit itself.

## Task Tell me cell viability reported for CC[C@H](C)[C@H](N)C(=O)N1CCSC1
## Result 107

## Task Return reported cell viability. Input molecule: CCCc1nc(C)c2c(=O)nc(-c3cc(S(=O)(=O)N4CCN(CC)CC4)ccc3OCC)[nH]n12
## Result 102

## Task Read the entry C=CC(=O)c1ccc(O)cc1 and write its reported cell viability.
## Result 115

## Task Using the record for O=C1C(SCCO)=C(SCCO)C(=O)c2ccccc21 , state its measured cell viability.
## Result 69.8

## Task Report measured cell viability; entry is C[C@H]1c2cccc(O)c2C(=O)C2C(=O)[C@]3(O)C(=O)C(C(N)=O)C(=O)[C@@H](N(C)C)[C@@H]3[C@@H](O)[C@@H]21 (stereo partly drawn)
## Result 108

## Task Specify cell viability for Cc1cc2c(C(C)C)c(O)c(O)c(C=O)c2c(O)c1-c1c(C)cc2c(C(C)C)c(O)c(O)c(C=O)c2c1O and stop.
## Result 108

## Task Identify cell viability associated with the molecule COC(=O)c1cc2c(C(F)(F)F)cc(-c3ccccc3)cc2n1O
## Result 89.4

## Task Provide only the value of recorded cell viability for CCCCCOC(=O)Nc1nc(=O)n([C@@H]2O[C@H](C)[C@@H](O)[C@H]2O)cc1F
## Result 106

## Task Note down cell viability recorded for Cc1cc(C(=O)NNCc2ccccc2)no1
## Result 92.6

## Task Respond only with cell viability recorded for N#Cc1ccc(N(Cc2ccc(Br)cc2)n2cnnc2)cc1
## Result 118

## Task # return recorded cell viability for input CN(CCOc1ccc(Cc2sc(O)nc2O)cc1)c1ccccn1
## Result 110

## Task Input CC(C)(C)c1ccc(S(=O)(=O)NCc2ccc(C(=O)Nc3cccnc3)cc2)cc1 , output reported cell viability.
## Result 3.71

## Task // fetch cell viability given entry Cc1ccc(-c2cc(C(F)(F)F)nn2-c2ccc(S(N)(=O)=O)cc2)cc1
## Result 99.5

* * *

System: HL-60
measurement description: cell viability (% survival relative to DMSO control); higher = less cytotoxic
run parameters: 0.1 µM; 72 h; co-treatment: DMSO vehicle
Provide the recorded cell viability for the entries that follow.
All answers are understood in %, so give the number only.

## Task For Cc1cc2c(C(C)C)c(O)c(O)c(C=O)c2c(O)c1-c1c(C)cc2c(C(C)C)c(O)c(O)c(C=O)c2c1O , write its cell viability.
## Result 96.3

## Task Entry O=C([O-])CC(O)(C(=O)[O-])C(O)C(=O)[O-].[K+].[K+].[K+] (centres undefined) [Hydroxycitrate] needs its cell viability filled in; supply it.
## Result 104

## Task Determine its reported cell viability: O=c1cc(N2CCOCC2)oc2c(-c3ccccc3)cccc12
## Result 102

## Task Tell us which cell viability value is on record for CCOC(=O)c1ccc(-c2ccc(OC(=O)N(C)Cc3cccc(-c4ccncc4)c3)cc2)cc1
## Result 98.3

* * *

System: MV4-11
measurement description: cell viability (% survival relative to DMSO control, bortezomib = 0%); higher = less cytotoxic
run parameters: 10 nM; 72 h
Would you mind telling me the reported cell viability of each entry?
Report the figure in % without appending any unit label.

## Task Recall and state the measured cell viability for CN(CCCOc1ccc(Cc2ccccc2)cc1)CCC(=O)O .
## Result 97.6

## Task # return recorded cell viability for input CCc1oc2ccccc2c1C(=O)c1cc(Br)c(O)c(Br)c1
## Result 100

## Task Please supply the value of reported cell viability for the item COC(=O)c1cc2c(C(F)(F)F)cc(-c3ccccc3)cc2n1O
## Result 91.1

## Task State its cell viability for this compound: COc1ccc2c(NC(=O)Nc3cccc(C(F)(F)F)n3)ccnc2c1
## Result 103

## Task Fill in cell viability for record c1cc(-c2cnn3cc(-c4ccc(OCCN5CCCCC5)cc4)cnc23)ccn1
## Result 117

## Task Name the recorded cell viability of the compound listed here: CO[C@H]1C[C@@H]2CC[C@@H](C)[C@@](O)(O2)C(=O)C(=O)N2CCCC[C@H]2C(=O)O[C@H]([C@H](C)C[C@@H]2CC[C@@H](OC(=O)C(C)(CO)CO)[C@H](OC)C2)CC(=O)[C@H](C)/C=C(\C)[C@@H](O)[C@@H](OC)C(=O)[C@H](C)C[C@H](C)/C=C/C=C/C=C/1C
## Result 63.6

## Task Return the recorded cell viability value; entry: O=C(Nc1ccccc1)c1cc([N+](=O)[O-])ccc1Cl
## Result 93.3

## Task State its cell viability for this compound: CCCCCOC(=O)Nc1nc(=O)n([C@@H]2O[C@H](C)[C@@H](O)[C@H]2O)cc1F
## Result 90.8
